From: patent US20260234159A1

- MEASUREMENT NOTES: In vivo toxicological study in rats: haematology
- Parameters: species or system rats of the Wistar strain
- RUN PARAMETERS: female, 100 mg/kg oral daily 7 d
Property: HGB; scope: individual compounds
Response body: numeric value in g/dL, unit text excluded.

compound="COc1ccc(C(=O)Nc2sc3c(c2C#N)CCCCC3)cc1OC [PKL-A135]" result_type=HGB val=14.4
compound="COc1ccccc1NC(=O)N1CCc2c(sc(NC(=O)c3cccc4ccccc34)c2C#N)C1 [PKL-A152]" result_type=HGB val=14.3
compound="N#Cc1c(NC(=O)c2cccc3ccccc23)sc2c1CCN(CC(=O)Nc1cccc(Br)c1)C2 [PKL-B171]" result_type=HGB val=14.4

// next entry
Give me measured HGB, please, for this compound: N#Cc1c(NC(=O)c2cccc3ccccc23)sc2c1CCN(C(=O)Nc1ccccc1OC(F)(F)F)C2 [PKL-A159]
14.5

###

- MEASUREMENT NOTES: In vivo toxicological study in rats: haematology
- Set-up: species or system rats of the Wistar strain
- RUN PARAMETERS: female, 100 mg/kg oral daily 7 d
Property: PLT; scope: individual compounds

Use these answered entries as a reference point.
smiles_str=N#Cc1c(NC(=O)c2cccc3ccccc23)sc2c1CCN(CC(=O)Nc1cccc(Br)c1)C2 result_type=PLT val="1106 10^9/l"
smiles_str=COc1ccccc1NC(=O)N1CCc2c(sc(NC(=O)c3cccc4ccccc34)c2C#N)C1 result_type=PLT val="1122 10^9/l"
smiles_str=N#Cc1c(NC(=O)c2cccc3ccccc23)sc2c1CCN(C(=O)Nc1ccccc1OC(F)(F)F)C2 result_type=PLT val="994 10^9/l"

// next entry
Give me measured PLT, please, for this compound: COc1ccc(C(=O)Nc2sc3c(c2C#N)CCCCC3)cc1OC
978 10^9/l

###

- MEASUREMENT NOTES: In vivo toxicological study in rats: haematology
- Design: species or system rats of the Wistar strain
- RUN PARAMETERS: male, 30 mg/kg oral daily 7 d
RESULT TYPE: MCH (pg)
Response body: numeric value in pg, unit text excluded.

Give me measured MCH, please, for this compound: COc1ccc(C(=O)Nc2sc3c(c2C#N)CCCCC3)cc1OC [PKL-A135]
19.7

Give me measured MCH, please, for this compound: N#Cc1c(NC(=O)c2cccc3ccccc23)sc2c1CCN(C(=O)Nc1ccccc1OC(F)(F)F)C2 [PKL-A159]
19.9

Give me measured MCH, please, for this compound: N#Cc1c(NC(=O)c2cccc3ccccc23)sc2c1CCN(CC(=O)Nc1cccc(Br)c1)C2 [PKL-B171]
19.7

Give me measured MCH, please, for this compound: COc1ccccc1NC(=O)N1CCc2c(sc(NC(=O)c3cccc4ccccc34)c2C#N)C1 [PKL-A152]
19.6

###

Property: GRAN; scope: individual compounds
- MEASUREMENT NOTES: In vivo toxicological study in rats: haematology
- Design: species or system rats of the Wistar strain
- RUN PARAMETERS: male, 300 mg/kg oral daily 7 d

Use these answered entries as a reference point.
compound="COc1ccc(C(=O)Nc2sc3c(c2C#N)CCCCC3)cc1OC [PKL-A135]" result_type=GRAN val="1.13 10^9/l"
compound="COc1ccccc1NC(=O)N1CCc2c(sc(NC(=O)c3cccc4ccccc34)c2C#N)C1 [PKL-A152]" result_type=GRAN val="1.17 10^9/l"
compound="N#Cc1c(NC(=O)c2cccc3ccccc23)sc2c1CCN(CC(=O)Nc1cccc(Br)c1)C2 [PKL-B171]" result_type=GRAN val="1.40 10^9/l"

Give me measured GRAN, please, for this compound: N#Cc1c(NC(=O)c2cccc3ccccc23)sc2c1CCN(C(=O)Nc1ccccc1OC(F)(F)F)C2 [PKL-A159]
1.00 10^9/l
